Tested on: MGC-803
Experiment: Antiproliferative activity against human MGC803 cells after 24 hrs by MTT assay
Assay type: functional, cell-based
Settings: MGC-803, 24 h
measured_attribute: IC50

Exam item: Request body: readout IC50, system MGC-803, query C/C(=N\NC(=S)Nc1ccccc1)c1cc(Cl)ccc1O . Return the value.
Marked response: > 64 µM

###

Test system: GES1
Test: Cytotoxicity against human GES-1 cells after 72 hrs by MTT assay
Format: cell-based
Settings: GES1, 72 h
measured_attribute: IC50 (µM)
API: value field is a number in µM; no unit string.

Exam item: Requested field: IC50. Item: NC(=S)N/N=C/c1ncccc1N [TRIAPINE]
Marked response: 5.4

Exam item: Param item = C/C(=N\NC(=S)Nc1ccccc1)c1cc(Cl)ccc1O ; retrieve measured IC50.
Marked response: 27.9

Reference source for all entries: ChEMBL document CHEMBL4261561
